Reported glycan array binding signal (z-score) values are given for each entry in this list.
# test target: GlcNAc(b1-4)GlcNAc(b1-4)GlcNAc(b1-4)GlcNAc(b1-4)GlcNAc(b1-4)GlcNAc
# protocol description: glycan array binding signal (z-score within array); higher = stronger binding
# test parameters: glycan notation: IUPAC condensed, linker removed
The sample as a whole holds a higher share of the strongest signals than the screen did.

binder: Nc3LysM (protein) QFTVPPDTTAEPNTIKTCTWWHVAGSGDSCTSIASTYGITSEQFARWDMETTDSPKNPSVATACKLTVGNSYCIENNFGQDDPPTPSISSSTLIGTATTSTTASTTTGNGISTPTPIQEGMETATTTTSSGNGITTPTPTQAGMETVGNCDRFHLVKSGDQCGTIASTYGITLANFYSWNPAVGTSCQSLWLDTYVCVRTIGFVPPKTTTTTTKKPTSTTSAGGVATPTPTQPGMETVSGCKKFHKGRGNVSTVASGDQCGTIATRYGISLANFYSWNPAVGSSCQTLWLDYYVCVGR
glycan array binding signal (z-score): 16.7
--
binder: Clrb (Mus musculus) (protein) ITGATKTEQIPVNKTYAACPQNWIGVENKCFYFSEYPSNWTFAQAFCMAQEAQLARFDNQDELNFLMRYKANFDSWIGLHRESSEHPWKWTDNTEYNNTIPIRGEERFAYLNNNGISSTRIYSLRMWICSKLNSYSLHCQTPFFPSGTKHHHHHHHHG
glycan array binding signal (z-score): 7.67
--
binder: Sebin2 (Coprinopsis cinerea), A8PE78 (protein) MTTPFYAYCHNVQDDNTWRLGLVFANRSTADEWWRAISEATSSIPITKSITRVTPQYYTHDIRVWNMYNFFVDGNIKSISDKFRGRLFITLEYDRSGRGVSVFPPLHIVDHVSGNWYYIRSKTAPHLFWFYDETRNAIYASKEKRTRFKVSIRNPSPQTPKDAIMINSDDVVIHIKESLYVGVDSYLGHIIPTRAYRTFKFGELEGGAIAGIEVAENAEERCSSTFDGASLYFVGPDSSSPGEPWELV
glycan array binding signal (z-score): -0.328
